// data source = the RNAGym collection of RNA variant scans (doi:10.7554/elife.90254)

B1: LINE1-full (parent)
chain: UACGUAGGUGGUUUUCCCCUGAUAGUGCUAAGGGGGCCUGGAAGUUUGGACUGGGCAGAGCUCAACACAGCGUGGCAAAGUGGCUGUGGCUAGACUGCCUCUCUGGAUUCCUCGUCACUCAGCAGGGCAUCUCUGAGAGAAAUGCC

Variants of: B1
Test: self-cleavage, relative activity (ratio to wild type); higher = more cleavage; in vitro, sequencing; the parent is a self-cleaving ribozyme
# self-cleavage per record follows
Form: value (number only, do not type unit).

Kindly note the recorded self-cleavage for UACGUAGGUGGUUUUCCCCUGAUAGUGCUAAGGUGGCCUGGAAGUUUGGACUGGGCAGAGCUCAACACAGCGUGGCAAAGUGGCUGUGGCUAGACUGCCUCUCUGGAUUCCUCGUCACUCAGCAGGGCAUCUCUGAGAGAAAUGCC , which is 1.43

Kindly note the recorded self-cleavage for UACGUAGGUGGUUUUCCCCUGAUAGUGCUAAGGGGGCCUGGAAGUUUGGACUGGGCAGAGCUCAACACAGCGUGGCAAAGUGGCUGUGGCUAGACUGCCUCUCUGGAUUCCUCGUCGCUCAGCAGGGCAUCUCUGAGAUAAAUGCC , which is 2.05

Kindly note the recorded self-cleavage for UACGUAGGCGGUUUCCCCCUGAUAGUGCUAAGGGGGCCUGGAAGUUUGGACUGGGCAGAGCUCAACACAGCGUGGCAAAGUGGCUGUGGCUAGACUGCCUCUCUGGAUUCCUCGUCACUCAGCAGGGCAUCUCUGAGAGAAAUGCC , which is 1.28

Kindly note the recorded self-cleavage for UACGUAGGUGGUUUUCCCCUGAUAGUGCUAAGGGGGCCUGGAAGUUUGGACUGGGCUGAGCUCAACACAGCGUGGCAAAGUGGCUGUGGCUAGACUGCCUCUCUGGAUUCCCCGUCACUCAGCAGGGCAUCUCUGAGAGAAAUGCC , which is 0.01

Kindly note the recorded self-cleavage for UACGUAGGUGGUUUUCCCCUGAUAGUGCUAAGGGGGCCUGGAAGUUUGGACUGGGCAGAGCUCAACACAGCGUGGCAAAGUGGCUGUGGCUAGACUGCCUCCCUGGAUUCCUCGUCACUCAUCAGGGCAUCUCUGAGAGAAAUGCC , which is 1.63

Kindly note the recorded self-cleavage for UACGUAGGUGGUUUUCCCCUGAUAGUGCUAAGGGGGCCUGGAAGUUUGGACUGGGCAGAGCCCAACACAGCGUGGCAAAGUGGCUGUGGCUAGGCUGCCUCUCUGGAUUCCUCGUCACUCAGCAGGGCAUCUCUGAGAGAAAUGCC , which is 0.11

Kindly note the recorded self-cleavage for UACGUAGGUGGUUUUCCCCUGAUAGUGCUAAGGGGGCCUGGAAGUUUGGACUGGGCAGAGCUCAACACAGCGUGGCAAUGUGGCUGUGGCUAGACUGCCUCUCUGGAUUCCUCGUCACUCCGCAGGGCAUCUCUGAGAGAAAUGCC , which is 1.64

Kindly note the recorded self-cleavage for UACGUAGGUGGUUUUCCCCUGAUAGUGCUAAGGGGGCCUGGAAGUUUGGUCUGGACAGAGCUCAACACAGCGUGGCAAAGUGGCUGUGGCUAGACUGCCUCUCUGGAUUCCUCGUCACUCAGCAGGGCAUCUCUGAGAGAAAUGCC , which is 0.08

Kindly note the recorded self-cleavage for UACGUAGGUGGUUUUCCCCUGAUAGUGCUAAGGGGGCCUGGAAGUUUGGACUGGGCAGAGCUCAGCACAGCGUGGCAAAGUGGCUGUGGGUAGACUGCCUCUCUGGAUUCCUCGUCACUCAGCAGGGCAUCUCUGAGAGAAAUGCC , which is 0.09

Kindly note the recorded self-cleavage for UACGUAGGUGGUUUUCCCUUGAUAGUGCUAAGGGGGCCUGGAAGUUUGGACUGGGCAGAGCUCAACACAGCGUAGCAAAGUGGCUGUGGCUAGACUGCCUCUCUGGAUUCCUCGUCACUCAGCAGGGCAUCUCUGAGAGAAAUGCC , which is 1.12

Kindly note the recorded self-cleavage for UACGUAGGUGGUUUUCCCCUGAUAGUGCUGAGGGGGCCUGGAAGUUUGGACUGGGCAGAGCUCAACACAGCGUGGCAAAGUGGCUGUGGCUAGACUGCCUCUCUGGAUUCCUCGUCACUCAGCAGGGCAUCUCCGAGAGAAAUGCC , which is 1.13

Kindly note the recorded self-cleavage for UACGUAGGUGGUUUUCCCCUGGUAGUGCUAAGGGGGCCUGGAAGUUUGGACUGGGCAGAGCUCAACACAGCGUGGCAAAGUGGCAGUGGCUAGACUGCCUCUCUGGAUUCCUCGUCACUCAGCAGGGCAUCUCUGAGAGAAAUGCC , which is 0.12

Kindly note the recorded self-cleavage for UACGUAGGUGGUUUUCCCCUGAUAGUGCUAAGGGGGCCUGGAAGUUUGGACUGGGCAGAGCUCAACACAGCGUGGCAGAGUGGCUGUGGCUAGACUGCCUCUCUGGAGUCCUCGUCACUCAGCAGGGCAUCUCUGAGAGAAAUGCC , which is 1.38

Kindly note the recorded self-cleavage for UACGUAGGUGGUUUUCCCCUGAUAGUGCUAAGGGGGCCUGGAUGUUUGGACUGGGCAGAGCUCAACACAGCGUGGCAAAGUGGCUGUGGCUAGACUGCCUCUCUGGAUUCCUCGUCGCUCAGCAGGGCAUCUCUGAGAGAAAUGCC , which is 1.25

Kindly note the recorded self-cleavage for UACGUAGGUGGUUCUCCCCUGAUGGUGCUAAGGGGGCCUGGAAGUUUGGACUGGGCAGAGCUCAACACAGCGUGGCAAAGUGGCUGUGGCUAGACUGCCUCUCUGGAUUCCUCGUCACUCAGCAGGGCAUCUCUGAGAGAAAUGCC , which is 0.81

Kindly note the recorded self-cleavage for UACGUAGGUGGUUUUCCCCUGAUAGUGCUAAGGGGGCCUGGAAGUUUGGACUGGGCAGAGCUCAACACAGCGUGGCAAAGUGGCUGUGGCUAGACUGCUUCUCUGGAUUCCUCGUCACUCAGCAGGGCAUCUCUGAGAGAAAUGAC , which is 1.03
